assay: RPMI8226 myeloma cell viability, profiling panel, resazurin fluorescence, basal, 24 h, PK04 Diversity Set (AID 1180); settings: higher = more signal;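 note: RPMI8826 multiple myeloma cell line at 5000 cells per well; test concentration not given here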
Hi, to clarify the labels: 1 (yes) covers z-score from 0.2 upward, 0 (no) covers anything below 0.2.

{"columns": ["molecule", "discrete-label"],
 "data": [
  ["C[C@H]1COC(=O)[C@@H]2CCCN2C(=O)[C@@H](C)COC(=O)[C@@H]2CCCN2C1=O", "1 (yes)"],
  ["COc1ccc(NN2C(C(O)c3cc(OC)c(OC)c(OC)c3)C=CC3C(=O)N(C4CCCCC4)C(=O)C32)cc1 (centres undefined)", "0 (no)"],
  ["CCN1C(C)=C(C(=O)OC)[C@@H](c2ccccc2)N2C(=O)[C@](O)(C(=O)OC)[C@@H](c3ccccc3)C(C(C)=O)=C12", "1 (yes)"],
  ["COc1cc(Cc2cc3c(c(CCc4ccccc4)n2)[Si](C(C)C)(C(C)C)OC3)cc(OC)c1OC", "1 (yes)"],
  ["COCCOC(=O)N1C(=O)[C@@]2(c3cc(C#CCC(C(=O)OC)C(=O)OC)ccc31)[C@H](C(=O)N1CCN(c3ncccn3)CC1)[C@H]1C(=O)O[C@H](c3ccccc3)[C@H](c3ccccc3)N1[C@@H]2c1ccc(O)cc1", "1 (yes)"],
  ["Cc1ccc(S[C@]2(C(=O)NCCN3CCOCC3)CC(=O)N(C3Cc4ccccc4C3)[C@@H]2c2ccc(CO)cc2I)cc1", "0 (no)"],
  ["CCCNC(=O)[C@@H]1c2ccccc2C(=O)N(Cc2cc(F)cc(C(F)(F)F)c2)[C@H]1c1ccc(CO)cc1", "1 (yes)"],
  ["COc1cccc([C@@H]2[C@@H](C)CC[C@H]3C(=O)N(C)[C@@H](C(C)C)C(=O)N23)c1", "1 (yes)"],
  ["COCCCNC(=O)[C@@H]1c2ccccc2C(=O)N(CC23CC4CC(CC(C4)C2)C3)[C@H]1c1ccc(CO)cc1", "0 (no)"],
  ["COCCOC(=O)N1C(=O)[C@@]2(c3cc(C#CCCO)ccc31)[C@H](c1ccc(O)cc1)N1[C@H](c3ccccc3)[C@H](c3ccccc3)OC(=O)[C@H]1[C@@H]2C(=O)Nc1nc2ccccc2s1", "0 (no)"],
  ["Cc1ccc(S(=O)(=O)N2[C@@H](c3ccccc3)C(C(=O)O)=CC[C@H]2c2ccccc2)cc1", "0 (no)"],
  ["CC(C)N1CC=CC23O[C@@H]4/C=C\\CCCOC(=O)C4[C@H]2C(=O)N(CCO)[C@@H]3C1=O (some centres undefined)", "1 (yes)"],
  ["COc1ccc([Si](C)(C)[C@H]2[C@H](CC(=O)N(CCO)Cc3ccccc3)O[C@@]3(C(=O)N(C)c4ccccc43)[C@@H]2C)cc1", "1 (yes)"],
  ["CC(C)[Si]1(C(C)C)OCc2cc(C3CC3)nc(-c3ccccc3)c21", "1 (yes)"],
  ["CC(c1ccccc1)C(O)C1C=CC2C(=O)N(C)C(=O)C2N1N(c1ccccc1)c1ccccc1 (centres undefined)", "0 (no)"],
  ["CO[C@H]1COC(=O)[C@H](C)NC(=O)CC=C[C@@H](C)[C@H](NS(=O)(=O)c2ccc(C)cc2)COC(=O)CC=C[C@@H]1C", "1 (yes)"],
  ["Cc1ccc(S[C@]2(C(=O)NCCCN(C)C)CC(=O)N(Cc3ccccc3)[C@@H]2c2ccc(CO)cc2I)cc1", "0 (no)"],
  ["O=C1C2C=CC(C(O)C(c3ccccc3)c3ccccc3)N(Nc3ccc([N+](=O)[O-])cc3)C2C(=O)N1c1ccccc1 (centres undefined)", "0 (no)"],
  ["CC(C)N1CC=CC23O[C@@H]4/C=C\\CCCOC(=O)C4[C@H]2C(=O)N(CCCCCO)[C@@H]3C1=O (some centres undefined)", "1 (yes)"],
  ["CN(C)c1ccc(C(O)C2C=CC3C(=O)NC(=O)C3N2Nc2ccc(Cl)cc2Cl)cc1 (centres undefined)", "0 (no)"],
  ["CCC(=O)[C@]12O[C@@]3([C@@H]4C(=O)OCC[C@@H]41)N(CC)C(C)=C(C(=O)OC)[C@@H](c1ccccc1)N3C2=O", "1 (yes)"],
  ["CCCC=C(CCC)[C@@H](NC(=O)c1ccccc1)c1ccccc1", "0 (no)"],
  ["CC[C@@H]1C=C(C(=O)O)[C@H](c2ccccc2)N1S(=O)(=O)c1ccc([N+](=O)[O-])cc1", "0 (no)"],
  ["C=CC[C@]1(C(=O)OC)N=C(c2ccc(OCCCO)cc2)O[C@H]1c1ccccc1CN=[N+]=[N-]", "1 (yes)"],
  ["C=CCC(OC(C)=O)[C@@H]1[C@@H](N(Cc2cc3ccccc3o2)C(=O)Cc2ccc(F)cc2)c2cc(OCCCO)ccc2N1C(=O)c1ccc(-c2ccccc2)cc1 (some centres undefined)", "1 (yes)"],
  ["COCCOC(=O)N1C(=O)[C@@]2(c3cc(C#CC4=CCCCC4)ccc31)[C@H](c1ccc(O)cc1)N1[C@H](c3ccccc3)[C@H](c3ccccc3)OC(=O)[C@H]1[C@@H]2C(=O)N1CCCCCCC1", "1 (yes)"],
  ["CCN1C(C)=C(C(=O)OC)[C@@H](c2ccccc2)N2C(=O)[C@@]3(C(=O)OC)O[C@@]12[C@@H]1C(=O)N(c2ccccc2)C(=O)[C@@H]13", "1 (yes)"],
  ["CO[C@H]1COC(=O)[C@H](Cc2ccccc2)NC(=O)CC=C[C@@H](C)[C@H](OC)COC(=O)CC=C[C@@H]1C", "1 (yes)"],
  ["C[N+](C)(C)CCCCNC(=O)[C@@H]1C[C@@H]2C(=O)N3CCC[C@H]3C(=O)N2[C@@H]1c1cccc(OCCO)c1", "1 (yes)"]
]}
